Data provenance is patent US6737383B1.

System: cocklebur
assayInfo: Test B pre/postemergence cocklebur
Format: in vivo, Xanthium strumarium
conditionDetails: Postemergence, Rate 500 g/ha; scale of 0 to 10 where 0 is no effect and 10 is complete control
quantityMeasured: Plant response rating, Cocklebur
Please give the numeric answer without any surrounding text.

Below, 5 molecules whose answers are already recorded.
C=C(Cl)Cn1c(=O)on(C(=O)N(c2ccc(F)cc2F)C(C)C)c1=O [Compound 634] :: 2
CC(C)N(C(=O)n1oc(=O)n(CCC2OCCCO2)c1=O)c1ccccc1 [Compound 561] :: 0
C=C(C)Cn1c(=O)on(C(=O)N(c2ccccc2)C(C)C)c1=O [Compound 607] :: 0
CC(C)N(C(=O)n1oc(=O)n(CC[N+](=O)[O-])c1=O)c1ccc(F)cc1F [Compound 591] :: 0
CC(C)N(C(=O)n1oc(=O)n(C[Si](C)(C)C)c1=O)c1ccccc1 [Compound 577] :: 2

What Plant response rating, Cocklebur appears in the records for this molecule with cocklebur? C=C(Cn1c(=O)on(C(=O)N(c2ccccc2)C(C)C)c1=O)c1cccc(Cl)n1 [Compound 605]
0

What Plant response rating, Cocklebur appears in the records for this molecule with cocklebur? CC(C)N(C(=O)n1oc(=O)n(CC(=O)N(C)C)c1=O)c1ccccc1 [Compound 588]
0

What Plant response rating, Cocklebur appears in the records for this molecule with cocklebur? CCN(CC)C(=O)Cn1c(=O)on(C(=O)N(c2ccccc2)C(C)C)c1=O [Compound 571]
0
